Test: qHTS assay to test for compound auto fluorescence at 590 nm (red) in HepG2 cell free culture (AID 720684); note: % is set by controls: 0 for no effect and ±100 for the full control effect
Conditions: cell-free medium autofluorescence, red 540/590 nm; series mostly up to 91.3 µM
Calls of active or inactive are those of the source. Calls come from the whole dose curve; as a rule, active = well fitted curve in the direction sought with a large enough effect in the repeat runs; inconclusive = weak or mixed curves; inactive = flat fitted curve, though single readings scatter.
observable: fluorescence, % of Rose Bengal

molecule | result
COC(=O)CC(C(C)=O)C(=O)OC (stereo unspecified) | inactive
CCCCCCCC(=O)OCCCCCC | inactive
CC(=O)OCC(=O)[C@@]1(OC(C)=O)[C@@H](C)C[C@H]2[C@@H]3C[C@H](F)C4=CC(=O)C=C[C@]4(C)[C@@]3(F)[C@@H](O)C[C@@]21C | inactive
CCCCCCC(O)CCOC(C)=O (stereo unspecified) | inactive
c1ccc(CNc2ncnc3c2ncn3C2CCCCO2)cc1 (stereo unspecified) | inactive
Cc1cc([N+](=O)[O-])ccc1N | inactive

IN: Name the recorded fluorescence, % of Rose Bengal for "CCC(CO)(CO)[N+](=O)[O-]" .
OUT: inactive

IN: GET /values?readout=fluorescence, % of Rose Bengal&item= "Cc1cc(CCC(=O)OCCOCCOCCOC(=O)CCc2cc(C)c(O)c(C(C)(C)C)c2)cc(C(C)(C)C)c1O"
OUT: inactive

IN: Item under review: "CCCCCC" . Reported fluorescence, % of Rose Bengal?
OUT: inactive

IN: I'd like to know its fluorescence, % of Rose Bengal. The molecule in question is "CC(=O)OCC(C)C"
OUT: inactive

IN: Report fluorescence, % of Rose Bengal for CC1CCC(C(C)CS)CC1S (stereo unspecified) please.
OUT: inactive

IN: Would you kindly share the measured fluorescence, % of Rose Bengal for "Cc1c(C2(c3cc(Br)c(O)c(Br)c3C)OS(=O)(=O)c3ccccc32)cc(Br)c(O)c1Br" ?
OUT: inactive

IN: State the recorded fluorescence, % of Rose Bengal for this entry: "O=[N+]([O-])C1(Br)COCOC1"
OUT: inactive

IN: Which fluorescence, % of Rose Bengal reading was recorded for the molecule "CC(C)c1ccc(C(=O)N=C(N)N)cc1S(C)(=O)=O" ?
OUT: inactive

IN: Recorded fluorescence, % of Rose Bengal for "CN(C)CC/C=C1\c2ccccc2Sc2ccc(Cl)cc21" , please?
OUT: inactive

IN: Reported fluorescence, % of Rose Bengal for CC(C)(C)NCC(O)COc1cccc2c1C[C@H](O)[C@H](O)C2 (stereo partly specified) : what is it?
OUT: -0.334% [at 18.6 µM] (inactive)

IN: // fluorescence, % of Rose Bengal lookup, key: "O=C(NS(=O)(=O)/C=C/c1ccccc1)c1ccc(F)cc1Cl"
OUT: inactive

IN: Quick one: fluorescence, % of Rose Bengal of "CCOC(=O)c1ccc(NC(=O)CN2CCCCC2)cc1" ?
OUT: inactive

IN: // returns reported fluorescence, % of Rose Bengal for input "O[C@@H](CNC[C@H](O)[C@H]1CCc2cc(F)ccc2O1)[C@@H]1CCc2cc(F)ccc2O1"
OUT: inactive

IN: Could you share which fluorescence, % of Rose Bengal value was measured for "O=C(O)CNC(=O)c1ccccc1I" ?
OUT: inactive

* * *

Biological target: Aryl hydrocarbon receptor (Homo sapiens)
Test: qHTS assay to identify small molecule that activate the aryl hydrocarbon receptor (AhR) signaling pathway (AID 743085); note: nearly all actives have a fitted effect of over 15% in size;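 for activation: HG2L7.5c1 human HepG2 liver cells with stably integrated DRE-driven firefly reporter; % is set by controls: 0 for no effect and ±100 for the full control effect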
Settings: HepG2 AhR-luc (HG2L7.5c1), luciferase, 24 h; series mostly up to 70.3 µM
Excerpt: U.S. Tox21 Program National Center for Advancing Translational Sciences [NCATS] NIH Chemical Genomics Center [NCGC] U.S. Environmental Protection Agency [EPA] National Institutes of Environmental Health Sciences [NIEHS] National Toxicology Program [NTP] U.S. Food and Drug Administration [FDA] Tox21 Assay overview: The Aryl hydrocarbon Receptor (AhR), a member of the family of basic helix-loop-helix transcription factors, is crucial to adaptive responses to environmental changes. […]
Results filed as inconclusive are left out. Calls of active or inactive are those of the source. Calls follow the shape of the dose curve; as a rule, active = well fitted activation curve with a large enough effect in the repeat runs; inconclusive = weak or mixed curves; inactive = no such curve, though single readings can be large or run the other way.
The reply should be one of these categories: 1.0 for active, 0.0 for inactive

Below, 5 compounds whose answers are already recorded.
compound | label-value
CC(C)CC(O)CC(C)C | 0.0
CC(C)(C)NCC(O)COc1cccc2c1C[C@H](O)[C@H](O)C2 (stereo partly specified) | 0.0
O=C(O)CCC(=O)OC[C@@H](NC(=O)C(Cl)Cl)[C@H](O)c1ccc([N+](=O)[O-])cc1 | 0.0
CC(=O)OCC(C)C | 0.0
O=C(/C=C/c1ccc([N+](=O)[O-])cc1)c1ccccc1 | 0.0

IN: Call for entry "CCCc1nc2c(C)cc(-c3nc4ccccc4n3C)cc2n1Cc1ccc(-c2ccccc2C(=O)O)cc1" :
OUT: 0.0

IN: Each compound tested received a call. Report the one for "O=S(=O)(Cl)c1c(Cl)cccc1Cl" .
OUT: 0.0

IN: What did the test return for "CCN(CC)CCOC(=O)C(c1ccccc1)c1ccccc1" ?
OUT: 0.0

IN: Any idea what this test logged for COc1ccc2nc(S(=O)Cc3ncc(C)c(OC)c3C)[nH]c2c1 (stereo unspecified) ?
OUT: 1.0

IN: Would you mind telling me which call this test gave "[Cl][Nd]([Cl])[Cl]" ?
OUT: 0.0
